target_entity: T1, HLA-A*0201 molecule expressed on human tumor cell line T2 (human)
T1 construct: surface HLA-A2 read with anti-HLA-A2 antibody BB7.2-PE by FACS; also called HLA-A2
method_summary: T2 cell HLA-A2 stabilisation, FACS; 20% of signal of HIV pol 589-597 at 100 µM
Concentration of peptide that induces 20% of HLA-A2 expression less than 7 µM is True; Concentration of peptide that induces 20% of HLA-A2 expression greater than or equal to 7 µM is False.

INSERT INTO measurements (binder, classification) VALUES
  ('LMDLSTTEV [FOXM1-B2]', 'True'),
  ('FLPFGFILV (also called candidate peptide) [IL13RA2-B]', 'True'),
  ('FMLGEFLKL [BIRC5-B1]', 'True'),
  ('LTLGEFLKL [BIRC5-H]', 'False');

Turning to the following binder.
Prompt: Just wondering, is Concentration of peptide that induces 20% of HLA-A2 expression of GLLGEFLQI [BIRC5-B3] below 7 µM?
Response: False
